- targetUnderTest: UGT1A1 (Homo sapiens)
- Sequence (P22309 26-533): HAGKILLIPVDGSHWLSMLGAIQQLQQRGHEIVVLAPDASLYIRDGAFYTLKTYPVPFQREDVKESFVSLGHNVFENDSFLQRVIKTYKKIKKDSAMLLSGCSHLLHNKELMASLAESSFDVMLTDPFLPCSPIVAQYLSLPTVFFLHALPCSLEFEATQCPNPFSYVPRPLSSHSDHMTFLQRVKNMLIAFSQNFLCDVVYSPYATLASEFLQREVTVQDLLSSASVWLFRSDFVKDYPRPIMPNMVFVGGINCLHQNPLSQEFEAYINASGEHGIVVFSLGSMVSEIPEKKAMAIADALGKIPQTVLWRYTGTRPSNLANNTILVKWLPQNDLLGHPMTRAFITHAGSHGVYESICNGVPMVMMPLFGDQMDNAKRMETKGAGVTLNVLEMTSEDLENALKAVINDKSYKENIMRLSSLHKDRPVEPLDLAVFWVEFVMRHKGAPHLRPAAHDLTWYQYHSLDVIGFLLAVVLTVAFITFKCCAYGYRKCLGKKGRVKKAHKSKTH
- protocol: UGT1A1 supersomes-catalyzed 4-MU glucuronidation inhibition
- particulars: 50 μM PC components; recombinant human UGT; mean of triplicate
Please note: Fulfilled applies when residual activity 1A1 is 200% or greater, and Not fulfilled applies otherwise.

{"compound": "CCCCCCCCCCCCCCCCCCCCCC(=O)OC[C@H](COP(=O)([O-])OCC[N+](C)(C)C)OC(=O)CCCCCCCCCCCCCCCCCCCCC [PC 22:0, 22:0]", "targetUnderTest": "UGT1A1 (Homo sapiens)", "discreteLabel": "Not fulfilled"}
{"compound": "CCCCCCCCCCCC(=O)OC[C@H](COP(=O)([O-])OCC[N+](C)(C)C)OC(=O)CCCCCCCCCCC [PC 12:0, 12:0]", "targetUnderTest": "UGT1A1 (Homo sapiens)", "discreteLabel": "Fulfilled"}
{"compound": "CCCCCCCCCCCCCCCCCC(=O)OC[C@H](COP(=O)([O-])OCC[N+](C)(C)C)OC(=O)CCCCCCCCCCCCCCCCC [PC 18:0, 18:0]", "targetUnderTest": "UGT1A1 (Homo sapiens)", "discreteLabel": "Fulfilled"}
{"compound": "CCCCCCCC(=O)OC[C@H](COP(=O)([O-])OCC[N+](C)(C)C)OC(=O)CCCCCCC [PC 8:0, 8:0]", "targetUnderTest": "UGT1A1 (Homo sapiens)", "discreteLabel": "Not fulfilled"}
{"compound": "CCCCCCCCC(=O)OC[C@H](COP(=O)([O-])OCC[N+](C)(C)C)OC(=O)CCCCCCCC [PC 9:0, 9:0]", "targetUnderTest": "UGT1A1 (Homo sapiens)", "discreteLabel": "Not fulfilled"}
{"compound": "CCCCCCC(=O)OC[C@H](COP(=O)([O-])OCC[N+](C)(C)C)OC(=O)CCCCCC [PC 7:0, 7:0]", "targetUnderTest": "UGT1A1 (Homo sapiens)", "discreteLabel": "Not fulfilled"}
{"compound": "CCCCCCCCCCC(=O)OC[C@H](COP(=O)([O-])OCC[N+](C)(C)C)OC(=O)CCCCCCCCCC [PC 11:0, 11:0]", "targetUnderTest": "UGT1A1 (Homo sapiens)", "discreteLabel": "Fulfilled"}
{"compound": "CCCCCCCCCCCCCCCCCCC(=O)OC[C@H](COP(=O)([O-])OCC[N+](C)(C)C)OC(=O)CCCCCCCCCCCCCCCCCC [PC 19:0, 19:0]", "targetUnderTest": "UGT1A1 (Homo sapiens)", "discreteLabel": "Not fulfilled"}
{"compound": "CC/C=C\\C/C=C\\C/C=C\\C/C=C\\C/C=C\\C/C=C\\CCC(=O)O[C@H](COC(=O)CCCCCCCCCCCCCCCCC)COP(=O)([O-])OCC[N+](C)(C)C [PC 18:0, 22:6]", "targetUnderTest": "UGT1A1 (Homo sapiens)", "discreteLabel": "Not fulfilled"}
{"compound": "CCCCCCCCCCCCCCCCCCCCC(=O)OC[C@H](COP(=O)([O-])OCC[N+](C)(C)C)OC(=O)CCCCCCCCCCCCCCCCCCCC [PC 21:0, 21:0]", "targetUnderTest": "UGT1A1 (Homo sapiens)", "discreteLabel": "Not fulfilled"}
{"compound": "CCCCCC(=O)OC[C@H](COP(=O)([O-])OCC[N+](C)(C)C)OC(=O)CCCCC [PC 6:0, 6:0]", "targetUnderTest": "UGT1A1 (Homo sapiens)", "discreteLabel": "Not fulfilled"}
{"compound": "CCCCCCCCCCCCCCC(=O)OC[C@H](COP(=O)([O-])OCC[N+](C)(C)C)OC(=O)CCCCCCCCCCCCCC [PC 15:0, 15:0]", "targetUnderTest": "UGT1A1 (Homo sapiens)", "discreteLabel": "Fulfilled"}
